# target.under.test: myo1D (myosin-1D; myo31DF) (Drosophila melanogaster, UniProt Q23978)
# measurement.description: stopped-flow pyrene-actin fluorescence, slow-phase amplitude vs MgADP, quadratic fit
# Type: binding
# Parameters: full-length, C-terminal FLAG-Avi tags kept (biotinylated for gliding); baculovirus, Sf9 or Hi5 insect cells; heavy chain 117 kDa, calmodulin light chains; with Calmodulin (Gallus gallus, recombinant); Actin, alpha skeletal muscle (Oryctolagus cuniculus)
# details: actomyosin complex; chased with 1 mM MgATP; KMg25: 10 mM Mops pH 7.0, 25 mM KCl, 1 mM MgCl2, 1 mM EGTA, 1 mM DTT; 20 C
measurement.type: Kd (nM)
Dear colleague, please return just the value in nM, with no unit written.

Inquiry: Fill in the blank: the reported Kd of `Nc1ncnc2c1ncn2[C@@H]1O[C@H](COP(=O)(O)OP(=O)(O)O)[C@@H](O)[C@H]1O` is ____.
Reply text: 44

====

# target.under.test: myo1D (myosin-1D; myo31DF) (Drosophila melanogaster)
# details: read-out: Myo1D; rapid-equilibrium binding step to actomyosin (printed in μM, used as association constant in Equation 2); KMg25 pH 7.0, 1 mM MgCl2; 20 C
measurement.type: Kd (µM)
Please give a number only; it is taken to be in µM.

Inquiry: Which measured Kd value corresponds to Nc1ncnc2c1ncn2[C@@H]1O[C@H](COP(=O)(O)OP(=O)(O)OP(=O)(O)O)[C@@H](O)[C@H]1O [MgATP] ?
Reply text: 118
